The measured values listed here are drawn from the Human Domainome abundance scans (Beltran et al. 2025).

B1: Cyclin-F, residues 28 to 80; numbered along this chain, P41002 (parent)
chain: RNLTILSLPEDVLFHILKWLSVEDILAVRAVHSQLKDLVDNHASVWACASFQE

Variants of: B1
methodDescription: abundance fitness (aPCA) (normalised: wild type 0, dead -1); higher = more abundant; growth selection in yeast, the domain comes from the species named
measurementParameters: Homo sapiens
Lab note: class by abundance fitness, see bottom bin = under -0.7, middle bin = from -0.7 up to -0.2, top bin = -0.2 and over

GET /class?item= D24Q
bottom bin

GET /class?item= S44W
middle bin

GET /class?item= C48D
top bin

GET /class?item= D40N
middle bin

GET /class?item= T4S
top bin

GET /class?item= E53D
top bin

GET /class?item= A30M
top bin

GET /class?item= L8V
bottom bin

GET /class?item= V12K
bottom bin

GET /class?item= S44F
middle bin

GET /class?item= S50L
middle bin
